Collected growth inhibition values appear next to each entry.
# assay-info: NCI Yeast Anticancer Drug Screen. Data for the mlh1 rad18 strain (AID 175)
# conditions-used: S. cerevisiae mlh1 rad18 strain growth inhibition; at 50.0 µM; hits give high values
Compounds without any hit were thinned out: in the full panel of roughly 79,000, 15% have a hit.
State the answer as a number, implicitly in %.

Known results for compounds:
Give its growth inhibition value. Item: CCOc1ccc(NC(=O)C(=O)CC(=O)C2=C(C)Nc3ccccc3S2)cc1 28.5

Record: Oc1ccccc1C=Nc1ccc2c(ccc3c4ccccc4ccc23)c1 39.8

Try this compound too: CSc1cc(=O)[nH]c(=O)[nH]1 10.8

What do you get for CC1NC(=O)CC(c2ccccc2)N(N=O)C1c1ccccc1 (configuration not stated) ? 8.65

Now the same for NCc1c(Cl)c(Cl)c(Cl)c(CN)c1Cl 19.5

Others:
Record request: growth inhibition value, item O=C(O)/C=C/C=C/c1ccc(Cl)cc1 -1.95

Repeat for the following compound: CO/N=C\c1cc[n+](C)cc1 19.2

Would you mind doing CCOC(=O)N1CCC2C(=C(C)C(C)C3=C2C(=O)c2ccccc2C3=O)C1 (configuration not stated) as well? 7.1
